- PROTOCOL: Binding in DMEM with 10% FCS via ultracentrifugation
- Assay type: in vitro ADME, calf
- TEST CONTEXT: bovine, pH 7.4
REPORTED ENDPOINT: fraction unbound at […], 1000 ng/mL
I'd appreciate a reply containing only the number, no unit.

Request: Sample COc1cc(NC(C)CCCN)c2ncccc2c1 (stereo not shown) — what was its fraction unbound at […], 1000 ng/mL?
Result: 0.78

* * *

- PROTOCOL: In vitro metabolism (metabolic stability) in human liver microsomes
- TEST CONTEXT: human, liver microsomes, pH 7.4, Range HLM CLint, control compounds; 6–21 independent measurements; 0.4 mg/mL
REPORTED ENDPOINT: microsomal CLint at 1 µM

Request: Looking for the measured microsomal CLint at 1 µM of COc1ccc2[nH]c([S+]([O-])Cc3ncc(C)c(OC)c3C)nc2c1 (stereo not shown) , can you help?
Result: 15.9 to 40.9 µL/min/mg

FYI, the data here is from paper PMC6941357.
